- target under test: SARS-CoV-2 Receptor Binding Domain (RBD) protein (SARS-CoV-2)
- method description: SPR (Carterra LSA), scFv captured via anti-V5, RBD as analyte, 1:1 fit
measure: kon (M⁻¹ s⁻¹)

binder: COVID19_P23_G10 (scFv, V domains shown) VH: QVQLVQSGAEVKKPGSSVKVSCKASGYTFTDYYIQWVRQAPGQGLEWMGWINPNSGGPNYAQKFQGRVTITADESTSTAYMELSSLRSEDTAVYYCARVDYGDYGRLEDYWGQGTLVTVSS VL: DIQMTQSPSSLSASVGDRVTITCRASQSIYSWLAWYQQKPGKAPKLLIYDASSLESGVPSRFSGSGSGTDFTLTISSLQPEDFATYYCQQLNSYPYTFGQGTKVEIKR
measure: kon
reported result: 154000
